# MEASUREMENT DESCRIPTION: method code SF, from Hansch, C. & Leo, A. (1987). Log P database [Dataset]. Pomona College Medicinal Chemistry Project.
# RECORDED CONDITIONS: pH 7.0
Overview of reported logD across a group of molecules:
Respond numerically, and do not add a unit to the figure.

Record excerpt, results attached:
O=[N+]([O-])c1cccc(C(F)(F)F)c1    2.62
CC(=O)c1cccc(C#N)c1    1.16
COc1ccc(C=O)cc1    1.61
COc1ccccc1CO    1.13
CC(=O)Nc1cccc(OC(C)=O)c1    1.03

Asked: Give the measured logD of O=Cc1ccc([N+](=O)[O-])cc1 .
Given back: 1.56

Asked: What measured logD goes with CNc1ncnc2ccsc12 ?
Given back: 1.43
